experimentalSystem: Dihydrofolate reductase (Mus musculus)
Sequence (P00375 whole entry): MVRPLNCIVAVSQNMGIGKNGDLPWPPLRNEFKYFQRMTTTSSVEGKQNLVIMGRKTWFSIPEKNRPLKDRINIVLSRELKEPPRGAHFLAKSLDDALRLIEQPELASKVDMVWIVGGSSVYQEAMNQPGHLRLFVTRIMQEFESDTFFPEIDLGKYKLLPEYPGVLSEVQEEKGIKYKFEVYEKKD
methodNotes: Inhibition of Dihydrofolate reductase in mouse L1210 cells
pKi: −log10 of the molar value.
Note to self: values exactly at 10 are Yes. So pKi at or above 10 is Yes, below is No.

Past entries and their recorded results:
| molecule | label |
| --- | --- |
| CN(Cc1cnc2nc(N)nc(N)c2n1)c1ccc(C(=O)NC(CCC(=O)O)C(=O)N[C@@H](CC(=O)O)C(=O)O)cc1 (some centres not stated) | No |
| CN(Cc1cnc2nc(N)nc(N)c2n1)c1ccc(C(=O)NC(CCC(=O)N[C@@H](CCC(=O)O)C(=O)O)C(=O)O)cc1 (some centres not stated) | Yes |

Qu. Exam item: decide whether the reported pKi for CN(Cc1cnc2nc(N)nc(N)c2n1)c1ccc(C(=O)NC(CCC(=O)O)C(N)=O)cc1 (configuration not stated) is at least 10.
Ans. No

Qu. Can you check CNC(=O)CCC(NC(=O)c1ccc(N(C)Cc2cnc3nc(N)nc(N)c3n2)cc1)C(=O)O (configuration not stated) next?
Ans. Yes

Qu. Can you check CN(Cc1cnc2nc(N)nc(N)c2n1)c1ccc(C(=O)NC(CCC(=O)O)C(=O)N[C@@H](CCC(=O)O)C(=O)O)cc1 (some centres not stated) next?
Ans. No

Qu. Can you check CN(C)C(=O)CCC(NC(=O)c1ccc(N(C)Cc2cnc3nc(N)nc(N)c3n2)cc1)C(=O)O (configuration not stated) next?
Ans. Yes

Qu. Can you check CN(Cc1cnc2nc(N)nc(N)c2n1)c1ccc(C(=O)NC(CCC(N)=O)C(=O)O)cc1 (configuration not stated) next?
Ans. Yes

---

Tested on: L1210
methodNotes: k value was measured as efflux in L1210 cell membrane transport.
Format: functional, Mus musculus
Listed compounds paired with reported log10(k)
Annotation: log10 of k, min⁻¹ basis.

Example cases with answers are listed next.
| compound | log10(k) |
| --- | --- |
| CCCCCNC(=O)CCC(NC(=O)c1ccc(N(C)Cc2cnc3nc(N)nc(N)c3n2)cc1)C(=O)O (stereo not drawn) | -0.59 |
| CN(Cc1cnc2nc(N)nc(N)c2n1)c1ccc(C(=O)N[C@@H](CCC(=O)O)C(=O)O)cc1 [METHOTREXATE] | -0.64 |

Qu. Need log10(k) of CN(Cc1cnc2nc(N)nc(N)c2n1)c1ccc(C(=O)NC(CCC(=O)NCC(=O)O)C(=O)O)cc1 (stereo not drawn) , thanks.
Ans. 0.32

Qu. Can you check CNC(=O)CCC(NC(=O)c1ccc(N(C)Cc2cnc3nc(N)nc(N)c3n2)cc1)C(=O)O (stereo not drawn) next?
Ans. -0.68

Qu. Can you check CN(C)C(=O)CCC(NC(=O)c1ccc(N(C)Cc2cnc3nc(N)nc(N)c3n2)cc1)C(=O)O (stereo not drawn) next?
Ans. -0.59

Qu. Can you check CN(Cc1cnc2nc(N)nc(N)c2n1)c1ccc(C(=O)NC(CCC(=O)NCc2ccccc2)C(=O)O)cc1 (stereo not drawn) next?
Ans. -0.72

Qu. Can you check CN(Cc1cnc2nc(N)nc(N)c2n1)c1ccc(C(=O)NC(CCC(=O)N[C@@H](CCC(=O)O)C(=O)O)C(=O)O)cc1 (stereo partly drawn) next?
Ans. -0.66

Qu. Can you check CN(Cc1cnc2nc(N)nc(N)c2n1)c1ccc(C(=O)NC(CCC(N)=O)C(=O)O)cc1 (stereo not drawn) next?
Ans. -0.82
